Data origin, for the record: ChEMBL document CHEMBL1121539

# Test system: L1210
# PROTOCOL: Toxicity against L-1210 leukemia cells in mice after intraperitoneal administration, activity is expressed as LD10
# SETTINGS: mouse, in vivo, ip
Category scheme (log(1/LD10)): low bracket: < 0.6; middle bracket: ≥ 0.6 and < 0.8; high bracket: ≥ 0.8

Illustrative cases are given below, each with its answer.
MOLECULE	CLASS ASSIGNMENT
O=NN(CCCl)C(=O)NC1C2CC3CC(C2)CC1C3 (stereo unspecified)	low bracket
O=NN(CCCl)C(=O)NC1CCC(CCl)CC1 (stereo unspecified)	middle bracket
Cc1cccc(C)c1NC(=O)N(CCCl)N=O	high bracket
O=NN(CCCl)C(=O)N[C@H]1CC[C@@H](O)CC1	middle bracket
O=NN(CCCl)C(=O)NC(Cc1ccccc1)C(=O)O (stereo unspecified)	low bracket
NC(=O)N(CCCl)N=O	high bracket
CC1(NC(=O)N(CCCl)N=O)CCCC1	low bracket
CC1CC(NC(=O)N(CCCl)N=O)CC(C)(C)C1 (stereo unspecified)	low bracket
C[C@H]1CC[C@H](NC(=O)N(CCCl)N=O)CC1	middle bracket
O=NN(CCCl)C(=O)NC1C(O)CCCC1O (stereo unspecified)	high bracket

Q: Category of O=NN(CCCl)C(=O)NC12CC3CC(CC(C3)C1)C2 :
A: middle bracket

Q: Category of O=NN(CCCl)C(=O)N[C@H]1CCCC[C@@H]1Cl :
A: middle bracket

Q: Category of O=NN(CCF)C(=O)NC1CCSCC1 :
A: high bracket

Q: Category of O=NN(CCCl)C(=O)NC1CCC(Br)CC1 (stereo unspecified) :
A: low bracket

Q: Category of CCOC(=O)C1(NC(=O)N(CCCl)N=O)CCCCC1 :
A: low bracket

----------
# PROTOCOL: Partition coefficient (logP)
# Format: physicochemical
# SETTINGS: octanol/water; read-out: logP
Entry flag: yes if logP reaches 3; no if it does not.

Illustrative cases are given below, each with its answer.
COMPOUND	CLASS ASSIGNMENT
CC(NC(=O)N(CCCl)N=O)C(=O)O (stereo not drawn)	no
O=NN(CCCl)C(=O)N[C@H]1CC[C@@H](C(=O)O)CC1	no
O=NN(CCF)C(=O)NC1CCSCC1	no
Cc1cccc(C)c1NC(=O)N(CCCl)N=O	no
O=NN(CCF)C(=O)NC1CCSc2ccccc21 (stereo not drawn)	no

Q: Quick check: does CC12CC3(C)CC(C)(C1)CC(NC(=O)N(CCCl)N=O)(C2)C3 have logP greater than or equal to 3?
A: yes

Q: Quick check: does O=NN(CCCl)C(=O)NC1C2CC3CC(C2)CC1C3 (stereo not drawn) have logP greater than or equal to 3?
A: yes

----------
# PROTOCOL: Partition coefficient (logP)
# Format: physicochemical
# SETTINGS: octanol/water; read-out: logP
Entry flag: 1 if logP reaches 3; -1 if it does not.

Illustrative cases are given below, each with its answer.
COMPOUND	CLASS ASSIGNMENT
O=NN(CCCl)C(=O)NC(CCC(=O)O)C(=O)O (stereo unspecified)	-1
C[C@H]1S(=O)(=O)C[C@H](NC(=O)N(CCCl)N=O)CS1(=O)=O	-1
CC(=O)OCC1OC(NC(=O)N(CCCl)N=O)C(OC(C)=O)C(OC(C)=O)C1OC(C)=O (stereo unspecified)	-1
O=NN(CCCl)C(=O)NC1CCC(Br)CC1 (stereo unspecified)	-1
CC(=O)OC1CCC(NC(=O)N(CCF)N=O)CC1 (stereo unspecified)	-1

Q: Quick check: does CC(=O)O[C@H]1CCCC[C@H]1NC(=O)N(CCCl)N=O have logP greater than or equal to 3?
A: -1

Q: Quick check: does O=NN(CCCl)C(=O)NC1CCC(Cl)CC1 (stereo unspecified) have logP greater than or equal to 3?
A: -1

Q: Quick check: does O=NN(CCCl)C(=O)NC(C(=O)O)C1CCCCC1 (stereo unspecified) have logP greater than or equal to 3?
A: -1

Q: Quick check: does CC1CC(NC(=O)N(CCCl)N=O)CC(C)(C)C1 (stereo unspecified) have logP greater than or equal to 3?
A: 1
